The values you see were collected from ChEMBL document CHEMBL5233250.

Biological target: Coagulation factor XIII A chain (Homo sapiens) (UniProt P00488)
Sequence (P00488 whole entry): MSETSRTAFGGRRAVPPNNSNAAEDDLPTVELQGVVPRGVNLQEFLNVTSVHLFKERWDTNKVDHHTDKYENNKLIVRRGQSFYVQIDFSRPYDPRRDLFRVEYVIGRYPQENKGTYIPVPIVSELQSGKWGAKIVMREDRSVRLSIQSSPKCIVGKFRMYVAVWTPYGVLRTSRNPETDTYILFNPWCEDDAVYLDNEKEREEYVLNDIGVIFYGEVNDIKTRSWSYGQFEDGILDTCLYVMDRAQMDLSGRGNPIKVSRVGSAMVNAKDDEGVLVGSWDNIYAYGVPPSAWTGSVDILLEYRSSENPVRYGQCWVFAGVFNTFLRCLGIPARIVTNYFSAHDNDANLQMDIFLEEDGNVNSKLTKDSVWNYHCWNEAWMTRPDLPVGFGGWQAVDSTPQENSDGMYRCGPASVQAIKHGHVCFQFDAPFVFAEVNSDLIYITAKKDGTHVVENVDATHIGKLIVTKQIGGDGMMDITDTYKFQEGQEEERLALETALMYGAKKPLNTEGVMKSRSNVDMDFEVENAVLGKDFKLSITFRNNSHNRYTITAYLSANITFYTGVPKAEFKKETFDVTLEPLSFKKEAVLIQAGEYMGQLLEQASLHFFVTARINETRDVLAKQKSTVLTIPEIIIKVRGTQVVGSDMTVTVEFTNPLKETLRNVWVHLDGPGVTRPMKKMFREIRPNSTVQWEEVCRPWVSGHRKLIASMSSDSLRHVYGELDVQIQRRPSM
Experiment: Binding affinity to human plasma coagulation factor XIIIa assessed as rate constant in presence of GSH by DTNB based UV-fluorescence assay
Assay type: cell-free
Item-by-item account of K

// solved cases for K follow
molecularstring=NC(=O)CI experimentalvalue="0.8 10^4/M/s"
molecularstring=Cc1c(C)[n+](C)c(SCC(=O)CSc2nnnn2C)n1C experimentalvalue="4.9 10^4/M/s"
molecularstring=CC(=O)CSc1n(C)c(C)c(C)[n+]1C experimentalvalue="6.3 10^4/M/s"

Given the entry "CC(=O)CSc1n(C)cc[n+]1C" , report its measured K.
0.35 10^4/M/s
